system: HCT-116; assay: Induction of apoptosis in human HCT116 cells expressing wild type p53 assessed as early apoptotic cells expressing wild type p53 at 20 uM measured after 72 hrs by annexin V-FITC/propidium iodide staining-based flow cytometry analysis (reference value: 8.8 %); assay type: functional
Measured Attribute: Activity (%)
One number for each entry, in %.

The cases that follow already have their Activity on record.
>>> endpoint_result("CCOC(=O)c1[nH]c2cc(Cl)ccc2c1C(C(=O)NC(C)(C)C)N(C=O)Cc1ccc(OCc2ccc(C)cc2)cc1 (stereo unspecified)")
37.3
>>> endpoint_result("CC(C)(C)NC(=O)C(c1c(C(=O)O)[nH]c2cc(Cl)ccc12)N(C=O)Cc1ccc(OCc2cc(F)cc(F)c2)cc1 (stereo unspecified)")
11.9
>>> endpoint_result("COc1cccc(COc2ccc(CN(C=O)C(C(=O)NC(C)(C)C)c3c(C(=O)O)[nH]c4cc(Cl)ccc34)cc2)c1 (stereo unspecified)")
13.5
>>> endpoint_result("CCOC(=O)c1[nH]c2cc(Cl)ccc2c1C(C(=O)NC(C)(C)C)N(C=O)Cc1ccc(OCc2cc(F)cc(F)c2)cc1 (stereo unspecified)")
45.2
>>> endpoint_result("Cc1ccc(COc2ccc(CN(C=O)C(C(=O)NC(C)(C)C)c3c(C(=O)O)[nH]c4cc(Cl)ccc34)cc2)cc1 (stereo unspecified)")
10.3

As a next step, examine the compound that follows.
Input: State the recorded Activity for this entry: CC(C)(C)NC(=O)C(c1c(C(=O)O)[nH]c2cc(Cl)ccc12)N(C=O)Cc1ccc(OCc2cccc(Cl)c2)cc1 (stereo unspecified)
Output: 10.2

----------
system: HCT-116; test: Induction of apoptosis in human HCT116 cells expressing wild type p53 assessed as live cells at 20 uM measured after 72 hrs by annexin V-FITC/propidium iodide staining-based flow cytometry analysis (reference value: 83.7 %); assay type: functional
Consider the following compounds; for each one, report its Activity.
Give bare numbers, in %.

The cases that follow already have their Activity on record.
>>> endpoint_result("CCOC(=O)c1[nH]c2cc(Cl)ccc2c1C(C(=O)NC(C)(C)C)N(C=O)Cc1ccc(OCc2cc(F)cc(F)c2)cc1 (stereo unspecified)")
14.1
>>> endpoint_result("CC(C)(C)NC(=O)C(c1c(C(=O)O)[nH]c2cc(Cl)ccc12)N(C=O)Cc1ccc(OCc2ccc(Br)cc2)cc1 (stereo unspecified)")
77.9
>>> endpoint_result("Cc1ccc(COc2ccc(CN(C=O)C(C(=O)NC(C)(C)C)c3c(C(=O)O)[nH]c4cc(Cl)ccc34)cc2)cc1 (stereo unspecified)")
76.2
>>> endpoint_result("CCOC(=O)c1[nH]c2cc(Cl)ccc2c1C(C(=O)NC(C)(C)C)N(C=O)Cc1ccc(OCc2ccccc2Br)cc1 (stereo unspecified)")
9.9
>>> endpoint_result("CCOC(=O)c1[nH]c2cc(Cl)ccc2c1C(C(=O)NC(C)(C)C)N(C=O)Cc1ccc(OCc2ccccc2I)cc1 (stereo unspecified)")
86.3

Could you report Activity for every entry in the following list?
1. CCOC(=O)c1[nH]c2cc(Cl)ccc2c1C(C(=O)NC(C)(C)C)N(C=O)Cc1ccc(OCc2ccc(C)cc2)cc1 (stereo unspecified)
2. CCOC(=O)c1[nH]c2cc(Cl)ccc2c1C(C(=O)NC(C)(C)C)N(C=O)Cc1ccc(OCc2cccc(OC)c2)cc1 (stereo unspecified)
3. CC(C)(C)NC(=O)C(c1c(C(=O)O)[nH]c2cc(Cl)ccc12)N(C=O)Cc1ccc(OCCc2ccccc2)cc1 (stereo unspecified)
4. CCOC(=O)c1[nH]c2cc(Cl)ccc2c1C(C(=O)NC(C)(C)C)N(C=O)Cc1ccc(OCc2ccc(Cl)c(Cl)c2)cc1 (stereo unspecified)
5. CC(C)(C)NC(=O)C(c1c(C(=O)O)[nH]c2cc(Cl)ccc12)N(C=O)Cc1ccc(OCc2ccccc2I)cc1 (stereo unspecified)
6. COc1cccc(COc2ccc(CN(C=O)C(C(=O)NC(C)(C)C)c3c(C(=O)O)[nH]c4cc(Cl)ccc34)cc2)c1 (stereo unspecified)

Output:
1: 13; 2: 84.8; 3: 80.7; 4: 30; 5: 84.4; 6: 76.8

Could you report Activity for every entry in the following list?
1. CC(C)(C)NC(=O)C(c1c(C(=O)O)[nH]c2cc(Cl)ccc12)N(C=O)Cc1ccc(OCc2cc(F)cc(F)c2)cc1 (stereo unspecified)
2. CCOC(=O)c1[nH]c2cc(Cl)ccc2c1C(C(=O)NC(C)(C)C)N(C=O)Cc1ccc(NCc2ccc(Br)cc2)cc1 (stereo unspecified)
3. CCOC(=O)c1[nH]c2cc(Cl)ccc2c1C(C(=O)NC(C)(C)C)N(C=O)Cc1ccc(OCc2ccc(Br)cc2)cc1 (stereo unspecified)

Output:
[79.6, 58.6, 37.4]
